Measured values drawn from ChEMBL document CHEMBL5360646 for this set.

ASSAY_TARGET: 3',5'-cyclic-AMP phosphodiesterase 4A (Homo sapiens)
Sequence (P27815 whole entry): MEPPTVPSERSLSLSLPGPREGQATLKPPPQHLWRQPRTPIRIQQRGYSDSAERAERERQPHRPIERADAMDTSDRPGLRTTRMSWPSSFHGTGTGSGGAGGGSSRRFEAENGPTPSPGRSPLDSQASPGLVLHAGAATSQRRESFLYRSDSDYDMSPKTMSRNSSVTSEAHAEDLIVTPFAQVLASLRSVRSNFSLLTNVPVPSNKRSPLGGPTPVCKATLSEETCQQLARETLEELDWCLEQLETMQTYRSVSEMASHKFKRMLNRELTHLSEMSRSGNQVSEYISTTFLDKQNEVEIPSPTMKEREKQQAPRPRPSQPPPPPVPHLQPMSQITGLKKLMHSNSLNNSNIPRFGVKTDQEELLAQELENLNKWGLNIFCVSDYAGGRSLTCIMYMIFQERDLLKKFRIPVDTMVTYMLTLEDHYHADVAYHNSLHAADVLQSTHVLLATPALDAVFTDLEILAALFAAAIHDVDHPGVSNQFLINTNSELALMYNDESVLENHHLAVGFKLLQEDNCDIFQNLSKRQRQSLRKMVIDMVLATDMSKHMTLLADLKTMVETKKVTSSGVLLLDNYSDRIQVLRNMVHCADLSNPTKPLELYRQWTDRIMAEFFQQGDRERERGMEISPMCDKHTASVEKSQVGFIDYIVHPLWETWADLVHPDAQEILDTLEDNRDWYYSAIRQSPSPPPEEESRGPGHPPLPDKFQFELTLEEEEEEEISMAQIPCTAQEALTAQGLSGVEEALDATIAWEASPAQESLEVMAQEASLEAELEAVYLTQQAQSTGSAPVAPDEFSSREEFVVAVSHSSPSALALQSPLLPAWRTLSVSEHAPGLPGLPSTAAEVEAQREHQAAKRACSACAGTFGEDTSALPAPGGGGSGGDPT
RUN_DESCRIPTION: Inhibition of human recombinant PDE4A4 expressed in baculovirus expression system using cAMP as substrate by radiometric assay
VALUE_TYPE: IC50 (pM)
Respond numerically; units are pM and should not be typed.

Task: Would you mind telling me what IC50 value was observed for CCOc1cc([C@H](Cc2c(Cl)c[n+]([O-])cc2Cl)OC(=O)c2ccc(CN[C@@](CO)(C(=O)O[C@H]3CN4CCC3CC4)c3ccccc3)s2)ccc1OC ?
Result: 31.6

* * *

RUN_DESCRIPTION: Metabolic stability in rat plasma assessed as half life at 5 uM and measured upto 180 mins by HPLC-MS/MS analysis
Type: ADME, cell-free
Measured half-life at 5 µM values are reported for all entries that follow.
For clarity, give the value followed by its unit.

MOLECULE: COc1ccc([C@H](Cc2c(Cl)c[n+]([O-])cc2Cl)OC(=O)c2ccc(CN[C@@H](C(=O)O[C@H]3CN4CCC3CC4)c3ccccc3)s2)cc1OC
half-life at 5 µM: 0.15 h

Task: Would you mind telling me what half-life at 5 µM value was observed for COc1ccc([C@H](Cc2c(Cl)c[n+]([O-])cc2Cl)OC(=O)c2ccc(CNC(C)(C(=O)O[C@H]3CN4CCC3CC4)c3ccccc3)s2)cc1OC (stereo in doubt; 1f) ?
Result: 1.43 h

Task: What do we get for COc1ccc([C@H](Cc2c(Cl)c[n+]([O-])cc2Cl)OC(=O)c2ccc(CNC(CO)(C(=O)O[C@H]3CN4CCC3CC4)c3ccccc3)s2)cc1OC (stereo in doubt; 3f) ?
Result: 2.1 h

* * *

ASSAY_TARGET: 3',5'-cyclic-AMP phosphodiesterase 4B (Homo sapiens)
Sequence (Q07343 whole entry): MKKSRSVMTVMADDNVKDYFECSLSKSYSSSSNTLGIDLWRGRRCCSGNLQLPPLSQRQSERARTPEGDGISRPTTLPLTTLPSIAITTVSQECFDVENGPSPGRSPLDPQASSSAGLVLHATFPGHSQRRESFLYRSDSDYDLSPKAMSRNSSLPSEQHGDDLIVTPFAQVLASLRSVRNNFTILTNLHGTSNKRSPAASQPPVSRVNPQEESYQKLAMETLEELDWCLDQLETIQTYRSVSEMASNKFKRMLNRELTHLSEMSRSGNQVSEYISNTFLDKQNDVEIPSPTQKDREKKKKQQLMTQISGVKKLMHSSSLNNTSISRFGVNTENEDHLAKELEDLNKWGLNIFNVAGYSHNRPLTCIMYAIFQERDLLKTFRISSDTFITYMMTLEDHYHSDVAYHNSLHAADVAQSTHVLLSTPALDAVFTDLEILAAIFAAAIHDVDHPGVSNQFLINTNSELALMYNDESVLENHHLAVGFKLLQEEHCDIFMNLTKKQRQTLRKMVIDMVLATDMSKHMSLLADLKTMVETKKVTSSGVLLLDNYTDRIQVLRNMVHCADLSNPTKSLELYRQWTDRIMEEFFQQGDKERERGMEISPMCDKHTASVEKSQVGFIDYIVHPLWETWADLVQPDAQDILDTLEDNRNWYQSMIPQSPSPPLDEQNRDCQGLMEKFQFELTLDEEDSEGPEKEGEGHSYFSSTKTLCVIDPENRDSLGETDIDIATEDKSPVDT
RUN_DESCRIPTION: Inhibition of human recombinant PDE4B2 expressed in baculovirus expression system using cAMP as substrate by radiometric assay
VALUE_TYPE: pIC50
Scale: negative log10 of molar concentration, which is what pIC50 denotes.

Task: Would you mind telling me what pIC50 value was observed for CCOc1cc([C@H](Cc2c(Cl)c[n+]([O-])cc2Cl)OC(=O)c2ccc(CN[C@@](CO)(C(=O)O[C@H]3CN4CCC3CC4)c3ccccc3)s2)ccc1OC ?
Result: 10.40

* * *

ASSAY_TARGET: Muscarinic acetylcholine receptor M3 (Homo sapiens)
Sequence (P20309 whole entry): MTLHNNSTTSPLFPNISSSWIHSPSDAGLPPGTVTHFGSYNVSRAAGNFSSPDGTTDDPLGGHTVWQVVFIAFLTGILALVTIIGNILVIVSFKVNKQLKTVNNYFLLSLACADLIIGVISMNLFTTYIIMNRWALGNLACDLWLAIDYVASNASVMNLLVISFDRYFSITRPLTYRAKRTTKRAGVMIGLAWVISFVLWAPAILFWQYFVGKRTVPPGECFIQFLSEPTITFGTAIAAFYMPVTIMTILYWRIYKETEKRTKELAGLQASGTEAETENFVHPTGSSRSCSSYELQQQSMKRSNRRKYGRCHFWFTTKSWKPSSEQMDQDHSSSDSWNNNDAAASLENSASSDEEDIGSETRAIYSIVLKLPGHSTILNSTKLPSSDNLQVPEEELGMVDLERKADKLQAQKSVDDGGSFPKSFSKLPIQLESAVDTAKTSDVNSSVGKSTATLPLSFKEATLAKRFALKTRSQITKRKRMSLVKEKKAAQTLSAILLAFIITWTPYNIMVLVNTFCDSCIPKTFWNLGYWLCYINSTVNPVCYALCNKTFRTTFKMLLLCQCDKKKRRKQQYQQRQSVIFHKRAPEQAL
Response field label takes 1 when Ki is strictly below 0.3 nM and -1 in all other cases.

COMPOUND: CCOc1cc([C@@H](Cc2c(Cl)c[n+]([O-])cc2Cl)OC(=O)c2ccc(CN[C@@](CO)(C(=O)O[C@H]3CN4CCC3CC4)c3ccccc3)s2)ccc1OC
CLASS_ASSIGNMENT: -1
//
COMPOUND: COc1ccc([C@H](Cc2c(Cl)c[n+]([O-])cc2Cl)OC(=O)c2ccc(CNC(C)(C(=O)O[C@H]3CN4CCC3CC4)c3ccccc3)s2)cc1OC (stereo in doubt; 1s)
CLASS_ASSIGNMENT: 1
//
COMPOUND: CCC(NCc1ccc(C(=O)O[C@@H](Cc2c(Cl)c[n+]([O-])cc2Cl)c2ccc(OC)c(OC)c2)s1)(C(=O)O[C@H]1CN2CCC1CC2)c1ccccc1 (stereo in doubt; 2f)
CLASS_ASSIGNMENT: -1
//
COMPOUND: COc1ccc([C@H](Cc2c(Cl)c[n+]([O-])cc2Cl)OC(=O)c2ccc(CN[C@@H](C(=O)O[C@H]3CN4CCC3CC4)c3ccccc3)s2)cc1OC
CLASS_ASSIGNMENT: 1
//
COMPOUND: COCC(NCc1ccc(C(=O)O[C@@H](Cc2c(Cl)c[n+]([O-])cc2Cl)c2ccc(OC)c(OC)c2)s1)(C(=O)O[C@H]1CN2CCC1CC2)c1ccccc1 (stereo in doubt; 4s)
CLASS_ASSIGNMENT: -1
//
COMPOUND: CCOc1cc([C@H](Cc2c(Cl)c[n+]([O-])cc2Cl)OC(=O)c2ccc(CN[C@](CO)(C(=O)O[C@H]3CN4CCC3CC4)c3ccccc3)s2)ccc1OC
CLASS_ASSIGNMENT: 1
//
COMPOUND: COc1ccc([C@H](Cc2c(Cl)c[n+]([O-])cc2Cl)OC(=O)c2ccc(CNC(CO)(C(=O)O[C@H]3CN4CCC3CC4)c3ccccc3)c(OCC3CC3)c2)cc1OC (stereo in doubt; 9s)
CLASS_ASSIGNMENT: -1
//
COMPOUND: CCC(NCc1ccc(C(=O)O[C@@H](Cc2c(Cl)c[n+]([O-])cc2Cl)c2ccc(OC)c(OC)c2)s1)(C(=O)O[C@H]1CN2CCC1CC2)c1ccccc1 (stereo in doubt; 2s)
CLASS_ASSIGNMENT: -1

Task: Could you please tell me whether Ki recorded for COc1ccc([C@H](Cc2c(Cl)c[n+]([O-])cc2Cl)OC(=O)c2ccc(CNC(CO)(C(=O)O[C@H]3CN4CCC3CC4)c3ccccc3)s2)cc1OC (stereo in doubt; 3f) is less than 0.3 nM?
Result: -1

Task: What do we get for COc1ccc([C@H](Cc2c(Cl)c[n+]([O-])cc2Cl)OC(=O)c2ccc(CNC(CO)(C(=O)O[C@H]3CN4CCC3CC4)c3ccccc3)c(OCC3CC3)c2)cc1OC (stereo in doubt; 9f) ?
Result: -1

Task: What do we get for COc1ccc([C@H](Cc2c(Cl)c[n+]([O-])cc2Cl)OC(=O)c2ccc(CNC(C(=O)O[C@H]3CN4CCC3CC4)c3ccccc3)cc2)cc1OC (stereo partly specified) ?
Result: 1
